# koff listing for each entry below
# SYSTEM NAME: T1, Cynomolgus CD3εδ Fc heterodimer (Cy CD3ε Fc / CD3δ Fc-HIS) (cynomolgus, UniProt Q95LI8 22-100)
# T1 chain 1: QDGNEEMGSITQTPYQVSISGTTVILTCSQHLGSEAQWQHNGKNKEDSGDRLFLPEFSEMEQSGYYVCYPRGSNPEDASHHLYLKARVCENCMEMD
# T1 chain 2: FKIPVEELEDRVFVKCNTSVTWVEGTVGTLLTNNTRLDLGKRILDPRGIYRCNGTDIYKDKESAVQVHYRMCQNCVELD
# ASSAY SUMMARY: BLI (Octet), IgG on AHC sensor, pH 6.0
Number only, in s⁻¹; omit the unit.

Incoming: Given SAD10319_P04_B10 (ADI-57332) (antibody, V domains shown, IgG; also called Ab30) VH: QVQLVQSGAEVKKPGASVKVSCKASGYTFTSTFMHWVRQAPGQRLEWMGFIDAGTGATKYSQKFQGRVTITRDTSASTAYMELSSLRSEDTAVYYCARDAYGHYFYDHWGQGTLVTVSS VL: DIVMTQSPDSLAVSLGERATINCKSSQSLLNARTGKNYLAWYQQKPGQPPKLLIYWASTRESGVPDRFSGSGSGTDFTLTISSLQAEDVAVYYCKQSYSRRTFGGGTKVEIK , state its recorded koff.
Outgoing: 0.0127

Incoming: Thanks! And SAD10319_P06_F10 (ADI-57430) (antibody, V domains shown, IgG; also called Ab160) VH: QVQLVQSGAEVKKPGASVKVSCKASGYTFVSYDMHWVRQAPGPSLEWMGWIDPNTGATVYSQKFQGRVTITRDTSASTAYMELSSLRSEDTAVYYCARDHYGHYFYDVWGQGTLVTVSS VL: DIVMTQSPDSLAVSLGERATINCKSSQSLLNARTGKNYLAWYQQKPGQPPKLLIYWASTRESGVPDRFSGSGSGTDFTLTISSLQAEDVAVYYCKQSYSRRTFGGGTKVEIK ?
Outgoing: 0.00663

Incoming: Thanks! And SAD10320_P01_G03 (ADI-57358) (antibody, V domains shown, IgG; also called Ab66) VH: QVQLVQSGAEVKKPGASVKVSCKASGFNIKDYYMHWVRQAPGQRPEWMGWIDLENANTIYDAKFQGRVTITRDTSASTAYMELSSLRSEDTAVYYCARDAYGHSFYDVWGQGTLVTVSS VL: DIVMTQSPDSLAVSLGERATINCKSSQSLLNARTGKNYLAWYQQKPGQPPKLLIYWASTRESGVPDRFSGSGSGTDFTLTISSLQAEDVAVYYCKQSYHWRTFGGGTKVEIK ?
Outgoing: 0.0215

Incoming: Thanks! And SAD10319_P02_C04 (ADI-57309) (antibody, V domains shown, IgG; also called Ab250) VH: QVQLVQSGAEVKKPGASVKVSCKASGYTFESYSMHWVRQAPGQRLEWMGWINPATGATDYSQKFQGRVTITRDTSASTAYMELSSLRSEDTAVYYCARDAYHHYFYDVWGQGTLVTVSS VL: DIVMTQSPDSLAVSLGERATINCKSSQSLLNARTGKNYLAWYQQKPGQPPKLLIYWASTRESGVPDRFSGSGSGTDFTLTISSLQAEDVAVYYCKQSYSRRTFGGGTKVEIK ?
Outgoing: 0.0215

---
Incoming: Given SAD10319_P04_F11 (ADI-57339) (antibody, V domains shown, IgG; also called Ab38) VH: QVQLVQSGAEVKKPGASVKVSCKASGYTFTDYNMHWVRQAPGQRLQWMGWINPYTGYTKYSQKFQGRVTITRDTSASTAYMELSSLRSEDTAVYYCARDHYGHYFYDVWGQGTLVTVSS VL: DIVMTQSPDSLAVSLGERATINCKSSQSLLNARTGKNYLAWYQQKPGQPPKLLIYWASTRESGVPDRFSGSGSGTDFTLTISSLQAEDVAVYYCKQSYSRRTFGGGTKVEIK , state its recorded koff.
Outgoing: 0.00202
